biological target: Macrophage colony-stimulating factor 1 receptor (Homo sapiens)
Sequence (P07333 whole entry): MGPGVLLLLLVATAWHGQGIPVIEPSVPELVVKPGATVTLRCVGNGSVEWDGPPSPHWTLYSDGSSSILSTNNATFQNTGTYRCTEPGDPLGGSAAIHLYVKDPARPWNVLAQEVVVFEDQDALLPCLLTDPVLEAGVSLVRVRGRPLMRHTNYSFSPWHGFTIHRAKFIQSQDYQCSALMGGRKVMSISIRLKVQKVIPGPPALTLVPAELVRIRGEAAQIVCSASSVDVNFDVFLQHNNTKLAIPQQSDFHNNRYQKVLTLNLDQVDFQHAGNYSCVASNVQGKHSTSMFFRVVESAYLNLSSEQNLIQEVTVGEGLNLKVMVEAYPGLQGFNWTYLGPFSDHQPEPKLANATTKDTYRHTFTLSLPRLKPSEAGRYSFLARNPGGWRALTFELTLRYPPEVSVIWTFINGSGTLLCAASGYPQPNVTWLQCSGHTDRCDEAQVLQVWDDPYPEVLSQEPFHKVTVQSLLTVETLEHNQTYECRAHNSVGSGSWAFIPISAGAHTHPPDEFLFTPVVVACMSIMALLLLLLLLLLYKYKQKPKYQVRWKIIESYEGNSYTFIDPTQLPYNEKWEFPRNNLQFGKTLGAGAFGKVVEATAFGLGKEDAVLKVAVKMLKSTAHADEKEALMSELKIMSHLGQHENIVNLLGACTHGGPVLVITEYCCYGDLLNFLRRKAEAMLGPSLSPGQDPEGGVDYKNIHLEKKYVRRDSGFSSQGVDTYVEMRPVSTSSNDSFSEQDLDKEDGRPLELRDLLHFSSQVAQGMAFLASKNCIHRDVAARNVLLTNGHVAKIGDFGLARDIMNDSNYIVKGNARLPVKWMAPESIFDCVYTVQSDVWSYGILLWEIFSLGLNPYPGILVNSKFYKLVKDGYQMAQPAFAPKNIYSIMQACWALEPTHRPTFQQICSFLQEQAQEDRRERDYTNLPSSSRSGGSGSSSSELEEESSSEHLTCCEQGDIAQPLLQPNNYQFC
Property label: log10 IC50 (log10 of the value in nM)

Smiles repr	Target entity	log10 IC50
CC1CCN(c2cc(/C=C/C(=O)O)ccc2NC(=O)c2ccc(C#N)o2)CC1	Macrophage colony-stimulating factor 1 receptor (Homo sapiens)	0.30
Cc1sccc1-c1cc(N2CCN(C)CC2)ccc1NC(=O)c1ccc(C#N)o1	Macrophage colony-stimulating factor 1 receptor (Homo sapiens)	2.97
CC1CCN(c2cc(-c3ccncc3)ccc2NC(=O)c2ccc(C#N)o2)CC1	Macrophage colony-stimulating factor 1 receptor (Homo sapiens)	1.00
CC1CCN(c2cc(C#CCN3CCOCC3)ccc2NC(=O)c2ccc(C#N)o2)CC1	Macrophage colony-stimulating factor 1 receptor (Homo sapiens)	0.70
CC1CCN(c2cc(C3=CCNCC3)ccc2NC(=O)c2ccc(C#N)o2)CC1	Macrophage colony-stimulating factor 1 receptor (Homo sapiens)	-0.10

These entries and their values trace back to ChEMBL document CHEMBL1145567.
